EXPERIMENTAL_SYSTEM: CYP3A (Homo sapiens)
Sequence (P08684 2-503): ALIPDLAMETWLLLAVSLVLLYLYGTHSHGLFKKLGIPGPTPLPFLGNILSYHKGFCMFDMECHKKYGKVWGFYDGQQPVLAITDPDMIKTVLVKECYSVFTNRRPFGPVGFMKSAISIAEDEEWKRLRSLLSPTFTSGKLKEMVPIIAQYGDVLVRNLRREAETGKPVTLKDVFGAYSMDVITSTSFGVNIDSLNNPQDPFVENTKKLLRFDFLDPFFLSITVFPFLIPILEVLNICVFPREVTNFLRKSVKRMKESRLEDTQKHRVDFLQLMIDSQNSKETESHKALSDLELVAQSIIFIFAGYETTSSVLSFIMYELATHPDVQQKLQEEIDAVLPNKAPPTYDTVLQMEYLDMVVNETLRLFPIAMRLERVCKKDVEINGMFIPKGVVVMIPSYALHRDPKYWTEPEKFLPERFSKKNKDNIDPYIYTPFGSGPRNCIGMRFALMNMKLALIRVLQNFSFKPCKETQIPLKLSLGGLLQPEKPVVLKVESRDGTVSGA
PROTOCOL_DESCRIPTION: CYP3A inhibition in HLMs (midazolam, nifedipine, testosterone);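 further: pooled HLMs at 0.25 mg/mL in phosphate buffer, inhibitor across 0–50 µM, 10 min reaction at 37 °C after preincubation, probe metabolite quantified by LC-MS/MS, triplicate incubations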
CONDITION_DESCRIPTION: pooled human liver microsomes, pH 7.4, probe testosterone (cocktail set B), IC50 RI, CYP3A (testosterone), HLMs, testosterone, reversible inhibition
List of IC50 at 10 min values.

1) COc1cc2c(c(OC)c1OC)-c1c(cc3c(c1OC)OCO3)C[C@H](C)[C@H](C)C2	1.3 µM
2) COc1c2c(cc3c1-c1c(cc4c(c1OC)OCO4)C[C@H](C)[C@H](C)C3)OCO2	3.6 µM
3) COc1cc2c(c(OC)c1OC)-c1c(cc3c(c1OC)OCO3)C[C@H](C)[C@](C)(O)[C@H]2OC(=O)c1ccccc1	0.19 to 0.28 µM

Next:
Entry `COc1cc2c(c(OC)c1OC)-c1c(cc(OC)c(OC)c1OC)C[C@](C)(O)[C@@H](C)C2` has what IC50 at 10 min?
5.8 µM

* * *

List of IC50 values.
EXPERIMENTAL_SYSTEM: CYP2C19 (Homo sapiens)
Sequence (P33261 whole entry): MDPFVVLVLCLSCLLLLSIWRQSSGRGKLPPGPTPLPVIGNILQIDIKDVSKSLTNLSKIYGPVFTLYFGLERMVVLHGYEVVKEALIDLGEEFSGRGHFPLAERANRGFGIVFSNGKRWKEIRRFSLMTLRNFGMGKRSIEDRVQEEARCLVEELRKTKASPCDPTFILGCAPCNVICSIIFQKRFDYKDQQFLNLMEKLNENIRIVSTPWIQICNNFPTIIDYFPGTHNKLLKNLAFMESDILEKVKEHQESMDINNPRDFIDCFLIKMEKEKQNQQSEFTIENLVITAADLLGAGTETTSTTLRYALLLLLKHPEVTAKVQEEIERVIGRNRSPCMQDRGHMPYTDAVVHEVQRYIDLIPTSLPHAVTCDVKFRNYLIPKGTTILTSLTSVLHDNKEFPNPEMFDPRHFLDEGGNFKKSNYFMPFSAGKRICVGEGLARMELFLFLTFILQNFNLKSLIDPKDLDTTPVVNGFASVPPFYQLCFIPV
PROTOCOL_DESCRIPTION: CYP2C19 inhibition in HLMs (S-mephenytoin)
CONDITION_DESCRIPTION: IC50 RI, reversible inhibition
Note: unit µM is implicit; provide only the numeric part.

Consider the following illustrative entries.
1. COc1cc2c(c(OC)c1OC)-c1c(cc3c(c1OC)OCO3)C[C@H](C)[C@H](C)C2 [Gomisin N, gomisin N]	10.4
2. COc1c2c(cc3c1-c1c(cc4c(c1OC)OCO4)C[C@H](C)[C@H](C)C3)OCO2 [Wuweizisu C, wuweizisu C]	2.7
3. COc1cc2c(c(OC)c1OC)-c1c(cc3c(c1OC)OCO3)C[C@H](C)[C@](C)(O)[C@H]2OC(=O)c1ccccc1 [Gomisin C, gomisin C]	16.3

Next:
Entry COc1cc2c(c(OC)c1OC)-c1c(cc(OC)c(OC)c1OC)C[C@](C)(O)[C@@H](C)C2 [Schisandrin, schisandrin] has what IC50?
5.3

* * *

EXPERIMENTAL_SYSTEM: UniProtKB P33261
PROTOCOL_DESCRIPTION: in vitro
CONDITION_DESCRIPTION: microsomes, pH 7.4, IC50 Shift
MEASURE_NAME: IC50 shift at 10 min

Entry `COc1cc2c(c(OC)c1OC)-c1c(cc3c(c1OC)OCO3)C[C@H](C)[C@H](C)C2` has what IC50 shift at 10 min?
> 1.8

* * *

EXPERIMENTAL_SYSTEM: CYP2E1 (Homo sapiens, UniProt P05181)
Construct: pooled HLMs (0.25 mg/mL); tissue XenoTech H2630; host or cells: pooled human liver microsomes, mixed gender
Sequence (P05181 whole entry): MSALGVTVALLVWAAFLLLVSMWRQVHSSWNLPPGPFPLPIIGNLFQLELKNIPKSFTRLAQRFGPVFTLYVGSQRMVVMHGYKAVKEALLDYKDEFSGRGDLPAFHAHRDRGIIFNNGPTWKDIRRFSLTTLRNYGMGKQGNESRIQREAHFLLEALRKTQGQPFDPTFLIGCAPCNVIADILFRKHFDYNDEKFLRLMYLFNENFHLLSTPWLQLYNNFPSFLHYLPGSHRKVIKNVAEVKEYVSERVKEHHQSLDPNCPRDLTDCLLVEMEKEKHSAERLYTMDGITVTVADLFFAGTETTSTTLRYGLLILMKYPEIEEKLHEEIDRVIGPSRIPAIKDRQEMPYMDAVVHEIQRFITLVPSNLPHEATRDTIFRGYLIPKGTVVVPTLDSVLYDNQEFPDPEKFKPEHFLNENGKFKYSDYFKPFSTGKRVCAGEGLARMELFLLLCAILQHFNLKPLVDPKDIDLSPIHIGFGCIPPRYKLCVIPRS
PROTOCOL_DESCRIPTION: CYP2E1 inhibition in HLMs (chlorzoxazone)
Assay type: in vitro ADME
CONDITION_DESCRIPTION: human, pooled human liver microsomes, pH 7.4, probe chlorzoxazone (cocktail set B), RI/TDI fold shift
MEASURE_NAME: IC50 shift at 10 min

Under CYP2E1 (Homo sapiens, UniProt P05181): IC50 shift at 10 min value of `COc1cc2c(c(OC)c1OC)-c1c(cc3c(c1OC)OCO3)C[C@H](C)[C@H](C)C2` ?
> 2.1
